The values you see were collected from patent US9545105B2.

Experiment: log P by HPLC on reversed-phase column (C 18), EEC Directive 79/831 Annex V.A8
Type: physicochemical
Settings: HPLC on reversed-phase column (C 18); 40° C.; 0.1% aqueous formic acid and acetonitrile; linear gradient 10% to 90% acetonitrile
reportedMetric: logP
The reply should be a number, written without any unit.

Example entries begin here.
> print(dat)
                                   compound  recordednumber
1  Cn1nc(C(F)F)c(C(=O)N2CCCCC2CCOc2ccc(-c3ccccc3)cc2)c1F (centres unmarked) [Example 189]            4.31
2  CCn1nc(C)c(C(=O)N2CCCCC2c2cc(C)cc(C)c2)c1F (centres unmarked) [Example 20]            3.67
3  Cc1nc(C(F)F)c(C(=O)N2CCCCC2Cc2ccccc2)s1 (centres unmarked) [Example 133]            3.17
4  COc1cc(C2CCCCN2C(=O)c2c(C)nn(C)c2F)cc(OC)c1OC (centres unmarked) [Example 106]            2.21
5  CCc1noc(C)c1C(=O)N1CCCCC1c1cccc(Cl)c1Cl (centres unmarked) [Example 74]            3.73
6  CCc1noc(C)c1C(=O)N1CCCCC1c1cc(Cl)ccc1Cl (centres unmarked) [Example 85]            3.78
7  Cc1nn(C)c(F)c1C(=O)N1CCCCC1c1ccc2ccccc2c1 (centres unmarked) [Example 118]            3.21
8  Cc1nn(C)c(F)c1C(=O)N1CCCCC1c1cccc(Oc2ccccc2)c1 (centres unmarked) [Example 113]            3.60

Requested field: logP. Item: Cc1cc(C(=O)N2CCCCC2CCc2cccs2)c(C)o1 (centres unmarked) [Example 193] 3.79

Now try COc1cc(OC)cc(C2CCCCN2C(=O)c2c(C)nn(C)c2F)c1 (centres unmarked) [Example 68] . 2.56

Now try CCc1noc(C)c1C(=O)N1CCCCC1c1ccc2ccccc2c1 (centres unmarked) [Example 119] . 3.76

Now try CCc1nn(C)c(F)c1C(=O)N1CCCCC1c1cccc(Oc2ccccc2)c1 (centres unmarked) [Example 112] . 3.96

Now try CCc1noc(C)c1C(=O)N1CCCCC1c1cc(OC)cc(OC)c1 (centres unmarked) [Example 69] . 3.02

Now try COc1ccccc1CC1CCCCN1C(=O)c1cc(C)oc1C (centres unmarked) [Example 158] . 3.63

Now try Cn1nc(C(F)F)c(C(=O)N2CCCCC2c2ccc3c(c2)OCCO3)c1Cl (centres unmarked) [Example 66] . 2.99

Now try CCc1noc(C)c1C(=O)N1CCCCC1c1cccc(Cl)c1 (centres unmarked) [Example 45] . 3.48

Now try Cc1nn(C)c(F)c1C(=O)N1CCCCC1c1ccc2c(c1)OCO2 (centres unmarked) [Example 60] . 2.44

Now try Cn1nc(C(F)F)c(C(=O)N2CCCCC2c2ccc(Cl)cc2Cl)c1Cl (centres unmarked) [Example 80] . 4.06

###

Let's look at some molecules and their measured Efficacy.
Tested on: Uromyces appendiculatus
Assay: In vivo preventive test on Uromyces appendiculatus (bean rust)
Conditions: 100 ppm of active ingredient, evaluated 10 days after inoculation
Procedure: Solvent: 24.5 parts by weight of acetone • 24.5 parts by weight of N,N-dimethylacetamide Emulsifier: 1 part by weight of alkylaryl polyglycol ether To produce a suitable preparation of active compound, 1 part by weight of active compound is mixed with the stated amounts of solvent and emulsifier, and the concentrate is diluted with water to the desired concentration. […] The test is evaluated 10 days after the inoculation. […]
Numeric answer only, unit % assumed.

Example entries begin here.
> print(dat)
                                   molecule          targetundertest  endpointunit  recordednumber
1  CCc1nn(C)c(F)c1C(=O)N1CCCCC1c1cc(C)cc(C)c1 (centres unmarked)  Uromyces appendiculatus             %              98
2  Cc1ccccc1C1CCCCN1C(=O)c1c(C)nn(C)c1F (centres unmarked)  Uromyces appendiculatus             %             100
3  CCC(c1ccccc1)C1CCCCN1C(=S)c1c(C(F)F)nn(C)c1F (centres unmarked)  Uromyces appendiculatus             %              94
4  CCC(c1ccccc1)C1CCCCN1C(=O)c1c(C(F)F)nn(C)c1F (centres unmarked)  Uromyces appendiculatus             %              78
5  CCc1nn(C)c(F)c1C(=O)N1CCCCC1c1ccc(Cl)cc1 (centres unmarked)  Uromyces appendiculatus             %              96

Requested field: Efficacy. Item: Cc1cc(C)cc(C2CCCCN2C(=O)c2c(C)nn(C)c2F)c1 (centres unmarked) 100

Now try CCc1nn(C)c(F)c1C(=O)N1CCCCC1c1cc(OC)cc(OC)c1 (centres unmarked) . 95

Now try CCC(c1ccccc1Cl)C1CCCCN1C(=S)c1c(C(F)F)nn(C)c1F (centres unmarked) . 73

###

Assay: log P by HPLC on reversed-phase column (C 18), EEC Directive 79/831 Annex V.A8
Assay type: physicochemical
Conditions: HPLC on reversed-phase column (C 18); 40° C.; 0.1% aqueous formic acid and acetonitrile; linear gradient 10% to 90% acetonitrile
Let's look at some compounds and their measured logP.
The reply should be a number, written without any unit.

> print(dat)
                                    compound  reportedmetric  recordednumber
 1  Cn1nc(C(F)F)c(C(=O)N2CCCCC2c2ccccc2Cl)c1F (centres unmarked)            logP            3.31
 2  CCc1nn(C)c(F)c1C(=O)N1CCCCC1c1cccc(Cl)c1Cl (centres unmarked)            logP            3.62
 3  Cc1cc(C(=O)N2CCCCC2c2ccc(Cl)cc2Cl)c(C)o1 (centres unmarked)            logP            4.54
 4  Cc1cc(C)cc(C2CCCCN2C(=O)c2sc(Cl)nc2C)c1 (centres unmarked)            logP            4.49
 5  Cc1cc(C)cc(C2CCCCN2C(=O)c2scnc2C)c1 (centres unmarked)            logP            3.25
 6  Cn1nc(C(F)F)c(C(=O)N2CCCCC2COc2ccc3ccccc3c2)c1Cl (centres unmarked)            logP            3.87
 7  Cc1nc(C(F)F)c(C(=O)N2CCCCC2Cc2cccc(F)c2)s1 (centres unmarked)            logP            3.19
 8  Cn1nc(C(F)F)c(C(=O)N2CCCCC2COc2ccc3ccccc3c2)c1F (centres unmarked)            logP            3.68
 9  Cc1cccc(CC2CCCCN2C(=O)c2c(C(F)F)nn(C)c2F)c1 (centres unmarked)            logP            3.44
10  Cn1nc(C(F)F)c(C(=O)N2CCCCC2c2ccc(Cl)cc2Cl)c1F (centres unmarked)            logP            3.87

Requested field: logP. Item: CCc1nn(C)c(F)c1C(=O)N1CCCCC1c1ccccc1C (centres unmarked) 3.06

Now try CCC(c1ccccc1Cl)C1CCCCN1C(=O)c1c(C(F)F)nn(C)c1Cl (centres unmarked) . 4.44

###

Assay: log P by HPLC on reversed-phase column (C 18), EEC Directive 79/831 Annex V.A8
Type: physicochemical
Settings: HPLC on reversed-phase column (C 18); 40° C.; 0.1% aqueous formic acid and acetonitrile; linear gradient 10% to 90% acetonitrile
reportedMetric: logP
The reply should be a number, written without any unit.

Example entries begin here.
> print(dat)
                                   molecule  recordednumber
1  Cc1nc(C(F)F)c(C(=O)N2CCCCC2CCc2ccccc2)s1 (stereo not drawn) [Example 178]            3.52
2  Cn1nc(C(F)F)c(C(=O)N2CCCCC2CCc2ccccc2)c1F (stereo not drawn) [Example 177]            3.37
3  Cc1ccc(C2CCCCN2C(=O)c2c(C(F)F)nn(C)c2F)cc1C (stereo not drawn) [Example 9]            3.64
4  Cc1cc(C)cc(C2CCCCN2C(=O)c2sc(Br)nc2C)c1 (stereo not drawn) [Example 26]            4.51

Requested field: logP. Item: Cn1nc(C(F)F)c(C(=O)N2CCCCC2c2ccc(Br)cc2)c1Cl (stereo not drawn) [Example 103] 3.78

###

Let's look at some compounds and their measured logP.
Experiment: log P by HPLC on reversed-phase column (C 18), EEC Directive 79/831 Annex V.A8
Type: physicochemical
Conditions: HPLC on reversed-phase column (C 18); 40° C.; 0.1% aqueous formic acid and acetonitrile; linear gradient 10% to 90% acetonitrile
The reply should be a number, written without any unit.

Example entries begin here.
> print(dat)
                                   compound  recordednumber
1  Cc1ccccc1C1CCCCN1C(=O)c1c(C(F)F)nn(C)c1F (centres unmarked)            3.21
2  CCc1noc(C)c1C(=O)N1CCCCC1c1cc(OC)c(OC)c(OC)c1 (centres unmarked)            2.64
3  Cn1nc(C(F)F)c(C(=O)N2CCCCC2Cc2cccc3ccccc23)c1F (centres unmarked)            3.65
4  COc1ccccc1CC1CCCCN1C(=O)c1sc(C)nc1C(F)F (centres unmarked)            3.33

Moving on to another compound below.
Requested field: logP. Item: Cc1cc(C)cc(C2CCCCN2C(=O)c2c(C)nn(C)c2F)c1 (centres unmarked) 3.23
